// data source = patent US6051217

Assay Target: T1, hIL-3 receptor (human, UniProt P26951)
T1 sequence: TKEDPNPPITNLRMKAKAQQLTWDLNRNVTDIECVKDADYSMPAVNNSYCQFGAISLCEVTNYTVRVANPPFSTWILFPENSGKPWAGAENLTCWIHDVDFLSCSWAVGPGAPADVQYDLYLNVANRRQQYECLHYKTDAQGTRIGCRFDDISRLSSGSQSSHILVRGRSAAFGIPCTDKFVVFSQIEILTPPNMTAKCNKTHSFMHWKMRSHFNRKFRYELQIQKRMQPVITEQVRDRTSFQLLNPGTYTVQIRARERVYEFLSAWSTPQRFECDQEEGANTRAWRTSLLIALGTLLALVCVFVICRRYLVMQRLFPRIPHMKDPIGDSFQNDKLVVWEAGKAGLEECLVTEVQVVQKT
Assay Details: cell-based or functional assay
This listing pairs binders with measured Relative Biological Activity (AML 193 proliferation).
Readout Kind: Relative Biological Activity (AML 193 proliferation)

Binder: pMON13369 polypeptide (ligand) MANCSIMIDEIIHHLKRPPAPLLDPNNLNDEDVSILMDRNLRLPNLESFVRAVKNLENASGIEAILRNLQPCLPSATAAPSRHPIIIKAGDWQEFREKLTFYLVTLEQAQEQQ
Test Result: 10 EC50 (1-133)hIL-3 / EC50 mutant
//
Binder: pMON13285 polypeptide (ligand) MANCSNMIDEIITHLKQPPLPLLDFNNLNDEDMSILMDNNLRRPNLEAFNRAVKSLQNASAIESILKNLLPCLPLATAAPTRHPIHIKDGDWNEFRRKLTFYLKTLENAQAQQ
Test Result: 32 EC50 (1-133)hIL-3 / EC50 mutant
